target: Neu5Ac(a2-3)Gal(b1-3)GlcNAc(b1-3)GalNAc; experiment: glycan array binding signal (z-score within array); higher = stronger binding; conditions: glycan notation: IUPAC condensed, linker removed
Shown is part of a subset that was picked to be rich in the strongest signals.
result-type: glycan array binding signal (z-score)
// print number alone

SRS2 (Toxoplasma gondii), O15695 (protein) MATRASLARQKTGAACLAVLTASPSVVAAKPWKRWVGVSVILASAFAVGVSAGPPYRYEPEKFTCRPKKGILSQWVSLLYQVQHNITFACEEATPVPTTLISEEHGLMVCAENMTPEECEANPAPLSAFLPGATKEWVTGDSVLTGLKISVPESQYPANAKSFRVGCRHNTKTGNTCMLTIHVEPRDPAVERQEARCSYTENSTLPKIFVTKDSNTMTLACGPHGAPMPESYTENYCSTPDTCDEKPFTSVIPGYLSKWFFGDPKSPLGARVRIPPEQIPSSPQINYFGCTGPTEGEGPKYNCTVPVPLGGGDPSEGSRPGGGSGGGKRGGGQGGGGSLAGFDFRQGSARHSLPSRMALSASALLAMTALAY
1.3

Here is another binder to look at.
Input Pwp1 (Candida glabrata) (protein) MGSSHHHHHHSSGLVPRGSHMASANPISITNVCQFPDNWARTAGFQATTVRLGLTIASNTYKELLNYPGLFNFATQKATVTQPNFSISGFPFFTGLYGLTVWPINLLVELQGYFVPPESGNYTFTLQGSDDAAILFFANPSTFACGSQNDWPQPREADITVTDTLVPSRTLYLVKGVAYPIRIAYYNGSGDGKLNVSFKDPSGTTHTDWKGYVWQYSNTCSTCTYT . Output glycan array binding signal (z-score): 0.585
